tested on: DeltatarO mutant; assay: S. aureus survival, RN4220 and DeltatarO strains – OD600, teichoic acid synthesis inhibitors, primary screen (AID 463173); conditions: S. aureus RN4220 wild type/DeltatarO growth, OD600, 18 h, active compounds read low, screened at 18.75 µg/mL (by protocol)
Among all 52,000 compounds or so, about 4,300 (8.3%) were called active. The sample as a whole holds a higher share of actives than the screen did.
Listed here are compounds together with their documented survival.
The reply should contain only the number, in %.

Use these answered entries as a reference point.
compound=Cc1c(C(=O)NCc2ccc(Cl)cc2)oc2ccc3c(c12)C(=O)CC(C)(C)O3 observable=survival unitsofmeasure=% number=53
compound=COc1ccc(-n2c(SCc3ccccc3F)nc3c([nH]c4ccccc43)c2=O)cc1OC observable=survival unitsofmeasure=% number=68
compound="CC(Sc1oc(-c2ccco2)nc1S(=O)(=O)c1ccc(Br)cc1)c1ccccc1 (stereo unspecified)" observable=survival unitsofmeasure=% number=70
compound=Cc1cccc(C)c1NC(=O)c1oc2ccc3c(c2c1C)C(=O)CC(C)(C)O3 observable=survival unitsofmeasure=% number=42

Moving on to the next compound.
Form: item O=C(COc1ccccc1Cl)NCC1(N2CCOCC2)CCCCC1 ; test system DeltatarO mutant; survival: 106

* * *

test system: DeltatarO mutant; assay: S. aureus survival, RN4220 and DeltatarO strains – OD600, teichoic acid synthesis inhibitors, primary screen (AID 463173); details: S. aureus RN4220 wild type/DeltatarO growth, OD600, 18 h, active compounds read low, screened at 18.75 µg/mL (by protocol)
Out of some 52,000 compounds screened, about 4,300 (8.3%) were called active. Only a selection was taken, and actives are over-represented in it overall.
Entries whose survival is below 60% take label 1; entries at or above 60% take label 0.

compound=COc1ccc(Nc2ncc(C(=O)Nc3cccc(OC)c3)c3ccccc23)cc1 assignedlabel="label 0"
compound=CCOC(=O)c1ccc2nc(C)cc(Nc3cccc(C(=O)O)c3)c2c1 assignedlabel="label 0"
compound=COc1ccc(C(=O)Oc2ccc(C(c3c(C)[nH][nH]c3=O)c3c(C)[nH][nH]c3=O)cc2)cc1 assignedlabel="label 0"
compound="COc1ccccc1CNC(=O)CCC1N=C2c3ccccc3N=C(SCC(=O)NCCc3ccc(OC)c(OC)c3)N2C1=O (stereo unspecified)" assignedlabel="label 0"

Bench note: check whether CCOc1ccc(C2C(C(=O)Nc3ccccc3)=C(C)Nc3nc(SCc4cc(C)ccc4C)nn32)cc1 (stereo unspecified) shows survival below 60% label 0

survival under 60%? Item: COc1ccc(NC(=O)c2cnc(Nc3ccc(C)c(Cl)c3)c3ccccc23)c(OC)c1 label 0

For this compound, is survival lower than 60%? Cc1ccc(C(C)C)c(OCC(=O)Nc2ccc(O)c(-c3nc4cc(Cl)ccc4o3)c2)c1 label 0

Item Fc1ccccc1N1CCN(Cc2nnc(-c3ccc4c(c3)OCO4)o2)CC1 : survival beneath 60%, strictly? label 0

Consider COc1ccc(Nc2ncc(C(=O)Nc3cc(Cl)c(OC)cc3OC)c3ccccc23)cc1 . Does its survival lie strictly below 60%? label 0

I wonder whether Cc1cc(C)c2nc(C)cc(Nc3cccc(C(=O)O)c3)c2c1 has survival below 60%. Can you tell? label 0

Quick check: survival of COc1ccc(NC(=O)c2cnc(Nc3ccc(C)c(Cl)c3)c3ccccc23)cc1OC under 60%? label 1

State whether 60% exceeds survival recorded for CCCCCn1c(=N)c(S(=O)(=O)c2ccc(C)cc2)cc2c(=O)n3cc(C)ccc3nc21 . label 0

State whether 60% exceeds survival recorded for CCOC(=O)c1cnc2c(C)cc(C)cc2c1Nc1cccc(C(=O)O)c1 . label 1

Decide: survival of CCOC(=O)c1cnc2c(C)cc(C)cc2c1Nc1ccc(OCc2ccccc2)cc1 strictly below 60%? label 1

hey, is survival for COc1ccc(Nc2ncc(C(=O)Nc3ccc(F)cc3F)c3ccccc23)cc1 lower than 60% or not? label 1
